The measurements presented in this section are drawn from patent US10034477B2.

system: Zymoseptoria tritici; assay: Fungicidal activity: leaf blotch of wheat (SEPTTR), disease control on wheat seedlings; type: in vivo; settings: 72 h, LV activity at 121.5 g/H, 3 Day Curative, wheat (variety Yuma), read-out: SEPTTR 3DC disease control rating
endpoint-name: pest or weed control at 121.5 g/ha

Some entries whose results are on file:
COc1ccnc2c(=O)n([C@@H](C)C(=O)O[C@@H](C)[C@@H](c3ccccc3)c3ccc(C(F)(F)F)cc3)c(=O)oc12; > 80%
COc1ccnc2c(=O)n([C@@H](C)C(=O)O[C@@H](C)[C@H](c3ccccc3)c3ccc(C)cc3F)c(=O)oc12; > 80%
COc1ccnc2c(=O)n([C@@H](C)C(=O)O[C@@H](C)[C@H](Oc3cccc(F)c3)C(C)C)c(=O)oc12; > 80%
CCC[C@H](OC(=O)[C@H](C)n1c(=O)oc2c(OC)ccnc2c1=O)[C@@H](C)Oc1ccccc1; ≤ 80%
COc1cc(F)ccc1[C@@H](c1ccc(F)cc1)[C@H](C)OC(=O)[C@H](C)n1c(=O)oc2c(OC)ccnc2c1=O; > 80%
COc1ccnc2c(=O)n([C@@H](C)C(=O)O[C@@H](C)[C@@H](c3ccc(F)cc3)c3ccc(F)cc3C)c(=O)oc12; > 80%

// query Field request: pest or weed control at 121.5 g/ha | item: COc1ccnc2c(=O)n([C@@H](C)C(=O)O[C@@H](C)[C@H](Oc3ccccc3Cl)c3ccccc3)c(=O)oc12
// result ≤ 80%

// query Can you check CCC(CC)[C@@H](Oc1ccc(Cl)cc1)[C@H](C)OC(=O)[C@H](C)n1c(=O)oc2c(OC)ccnc2c1=O next?
// result ≤ 80%
